System: HBV rcDNA in HepDE19 cells
Assay: HepDE19 assay with bDNA quantitation of HBV rcDNA
Assay type: cell-based, hepatitis B virus
Conditions: Hepatitis B virus, HepDE19, HepDE19 assay, inhibition of rcDNA formation, bDNA quantitation; read-out: DE-19bDNA EC50
measured.parameter: EC50

• CCc1cc(F)cc2[nH]c(C(=O)N(C)[C@@H]3COCc4[nH]c(=O)c5cc(F)c(F)cc5c43)cc12 = 0.01 µM
• CCC(CC)C(=O)OC1OC[C@@H](N(C)C(=O)c2cc3cc(F)c(F)cc3[nH]2)c2c1[nH]c(=O)c1cc(F)c(F)cc21 (some centres unmarked) = 0.01 µM
• CN(C(=O)c1ccc2cncn2c1)[C@@H]1COCc2[nH]c(=O)c3cc(F)c(F)cc3c21 = 0.36 µM
• CN(C(=O)c1cc2ccccn2n1)[C@@H]1COCc2[nH]c(=O)c3cc(F)c(F)cc3c21 = 0.63 µM
• CN(C(=O)c1ccc(C(F)(F)F)c(=O)[nH]1)[C@@H]1COCc2[nH]c(=O)c3cc(F)c(F)cc3c21 = 3.87 µM

###

Here, each record is paired with measured log10 EC50 data.
Test system: HBV rcDNA in HepDE19 cells
Assay: HepDE19 assay with bDNA quantitation of HBV rcDNA
Type: cell-based, hepatitis B virus
Conditions: Hepatitis B virus, HepDE19, HepDE19 assay, inhibition of rcDNA formation, bDNA quantitation; read-out: DE-19bDNA EC50
measured.parameter: log10 EC50 (log10 of the value in nM)

* CN(C(=O)c1cc2cc(OC(F)(F)F)ccc2[nH]1)[C@@H]1COCc2[nH]c(=O)c3cc(F)c(F)cc3c21 | 3.08
* CN(C(=O)c1cc2c(OC(F)(F)F)cccc2[nH]1)[C@@H]1COCc2[nH]c(=O)c3cc(F)c(F)cc3c21 | 1.30
* CN(C(=O)c1ccnc(F)c1)[C@@H]1COCc2[nH]c(=O)c3cc(F)c(F)cc3c21 | 2.80
* CN(C(=O)c1cc2cc(F)ccc2[nH]1)[C@@H]1CCCc2[nH]c(=O)c3cc(F)c(F)cc3c21 | 1.00
* CN(C(=O)c1cc2c(Cl)cccc2[nH]1)[C@@H]1COCc2[nH]c(=O)c3cc(F)c(F)cc3c21 | 1.00
* CN(C(=O)c1cnn(C(F)(F)F)c1)[C@@H]1COCc2[nH]c(=O)c3cc(F)c(F)cc3c21 | 2.64
* COc1ccc2cc(C(=O)N(C)[C@@H]3COCc4[nH]c(=O)c5cc(F)c(F)cc5c43)[nH]c2c1 | 1.48
* CC(C)C(=O)OC1OC[C@@H](N(C)C(=O)c2cc3cc(F)c(F)cc3[nH]2)c2c1[nH]c(=O)c1cc(F)c(F)cc21 (some centres unmarked) | 1.00

###

Test system: HBV rcDNA in HepDE19 cells
Assay: HepDE19 assay with bDNA quantitation of HBV rcDNA
Format: cell-based, hepatitis B virus
Settings: Hepatitis B virus, HepDE19, HepDE19 assay, inhibition of rcDNA formation, bDNA quantitation; read-out: DE-19bDNA EC50
Here, each record is paired with measured EC50 data.
measured.parameter: EC50 (nM)

• Cc1cccc2[nH]c(C(=O)N(C)[C@@H]3CCCc4[nH]c(=O)c5cc(F)ccc5c43)cc12 = 20
• CN(C(=O)c1ccc(Cl)c(F)c1)[C@@H]1COCc2[nH]c(=O)c3cc(F)c(F)cc3c21 = 20
• CN(C(=O)c1cc2ccccc2[nH]1)C1CN(CCO)Cc2[nH]c(=O)c3cc(F)ccc3c21 (single isomer, unassigned) = 10000
• CN(C(=O)c1cnn(-c2ccc(F)cc2)c1)[C@@H]1COCc2[nH]c(=O)c3cc(F)c(F)cc3c21 = 10500
• CN(C(=O)c1cc2cc(Cl)ccc2[nH]1)[C@@H]1COCc2[nH]c(=O)c3cc(F)c(F)cc3c21 = 20
• CN(Cc1cc2cc(F)c(F)cc2[nH]1)[C@@H]1COCc2[nH]c(=O)c3cc(F)c(F)cc3c21 = 1500
